- System: intestinal alkaline phosphatase [Mus musculus]
- assay-name: mouse intestinal phosphatase enzyme activation – biochemical, luminescence, single concentration, confirmation (AID 434970)
- stated-conditions: purified mouse IAP, CDP-Star luminescence, 30 min, at 10 µM; measured here: IAP activation factor, stronger effect = higher value
Screen size: about 11,000 compounds; about 310 (2.8%) were called active. The sample as a whole holds a higher share of actives than the screen did.
Some compounds, each annotated with its measured activation factor.
reported-metric: activation factor

[
  {
    "compound": "COc1ccc2cc(C[C@@H]3CC[C@@H](CO)O3)ccc2c1",
    "measured-on": "intestinal alkaline phosphatase [Mus musculus]",
    "measured-value": 1.04
  },
  {
    "compound": "CC(C)c1ccc(NC(=O)C2CC(=O)Nc3nc4ccccc4n32)cc1 (stereo unspecified)",
    "measured-on": "intestinal alkaline phosphatase [Mus musculus]",
    "measured-value": 2.38
  },
  {
    "compound": "Cc1ccc(NC(=O)C2C(c3ccccc3)C2(Cl)Cl)c(C)c1 (stereo unspecified)",
    "measured-on": "intestinal alkaline phosphatase [Mus musculus]",
    "measured-value": 1.59
  },
  {
    "compound": "FC(F)(F)c1cccc(NC(=S)NCc2ccccc2)c1",
    "measured-on": "intestinal alkaline phosphatase [Mus musculus]",
    "measured-value": 1.69
  },
  {
    "compound": "O=C(Nc1ccc2c(c1)nc1n2CCOC1)c1ccco1",
    "measured-on": "intestinal alkaline phosphatase [Mus musculus]",
    "measured-value": 1.29
  },
  {
    "compound": "Cc1ccc(NC(=O)C2CC(=O)Nc3nc4ccccc4n32)c(C)c1 (stereo unspecified)",
    "measured-on": "intestinal alkaline phosphatase [Mus musculus]",
    "measured-value": 2.57
  },
  {
    "compound": "O=C(O)CCN(CCC(=O)O)c1ccccc1",
    "measured-on": "intestinal alkaline phosphatase [Mus musculus]",
    "measured-value": 1.02
  },
  {
    "compound": "COc1cccc(-c2sc3cc(OC)c(OC)cc3c2-c2ccc(OCCN3CCCCC3)cc2)c1",
    "measured-on": "intestinal alkaline phosphatase [Mus musculus]",
    "measured-value": 1.01
  },
  {
    "compound": "Cc1ccc(SCCCn2cnc3ccccc3c2=O)cc1",
    "measured-on": "intestinal alkaline phosphatase [Mus musculus]",
    "measured-value": 0.958
  },
  {
    "compound": "COc1ccc(OC)c(NC(=O)Cn2c(=O)n(CC(=O)NCc3ccco3)c(=O)c3ccccc32)c1",
    "measured-on": "intestinal alkaline phosphatase [Mus musculus]",
    "measured-value": 0.997
  },
  {
    "compound": "O=C(NCc1ccc2c(c1)CCO2)Nc1cccc(C(F)(F)F)c1",
    "measured-on": "intestinal alkaline phosphatase [Mus musculus]",
    "measured-value": 2.44
  }
]

* * *

- Test system: intestinal alkaline phosphatase [Mus musculus]
- assay-name: mouse intestinal phosphatase enzyme activation – biochemical, luminescence, single concentration, confirmation (AID 434970)
- stated-conditions: purified mouse IAP, CDP-Star luminescence, 30 min, at 10 µM; measured here: IAP activation factor, stronger effect = higher value
The whole screen tested about 11,000 compounds, of which about 310 (2.8%) were called active. Many of the other results were omitted from the sample, so actives are more common in it than they were.
Would you please tag the item true when its activation factor is 1 or above, and false when it is below?

[
  {
    "compound": "CCOc1ccc(CC(=O)OCN2C(=O)c3ccccc3C2=O)cc1",
    "answer-label": "false"
  },
  {
    "compound": "CCOc1ccc2nc(SCC(=O)N(C)C3CCS(=O)(=O)C3)[nH]c2c1 (configuration not stated)",
    "answer-label": "false"
  },
  {
    "compound": "CCOC(=O)c1c(-c2ccccc2)csc1NC(=O)COc1ccc2c(C)cc(=O)oc2c1",
    "answer-label": "false"
  },
  {
    "compound": "OC(c1cccc(OCc2ccccc2)c1)c1nnc(-c2ccccc2)o1 (configuration not stated)",
    "answer-label": "true"
  },
  {
    "compound": "O=C(NCc1ccncc1)c1nnc(Cc2c(F)cccc2Cl)o1",
    "answer-label": "false"
  },
  {
    "compound": "Cn1nc(C(=O)Nc2cccc(C(F)(F)F)c2)ccc1=O",
    "answer-label": "true"
  },
  {
    "compound": "O=S(=O)(c1ccc2ccccc2c1)N1CCCOC1",
    "answer-label": "true"
  },
  {
    "compound": "O=C(NCCCn1ccnc1)Nc1cccc(Cl)c1",
    "answer-label": "true"
  },
  {
    "compound": "COc1ccc(C2C(C#N)=C(N)N(c3sc4c(c3C#N)CCCC4)C3=C2C(=O)CC(C)(C)C3)cc1OC (configuration not stated)",
    "answer-label": "false"
  },
  {
    "compound": "Cc1cc(C)cc(NC(=O)Nc2ccc(-n3ccc(C(F)(F)F)n3)cc2)c1",
    "answer-label": "true"
  },
  {
    "compound": "COc1ccc2c(CC(=O)OCC(=O)N3CCc4ccccc43)coc2c1",
    "answer-label": "false"
  },
  {
    "compound": "COc1ccc(C2NCCO2)cc1OC (configuration not stated)",
    "answer-label": "false"
  },
  {
    "compound": "CCN1Cc2cc(OC)ccc2-c2ccccc2S1(=O)=O",
    "answer-label": "true"
  },
  {
    "compound": "Nc1ncnc2c1ncn2[C@@H]1O[C@H](CNS(=O)(=O)c2cc(S(=O)(=O)c3ccccc3)cs2)[C@@H](O)[C@H]1O",
    "answer-label": "true"
  },
  {
    "compound": "O=C(O)CCN1C(=O)NC2(CCCC2)C1=O",
    "answer-label": "true"
  },
  {
    "compound": "O=C(O)CS(=O)(=O)c1ccc(Oc2ccc(S(=O)(=O)CC(=O)O)cc2)cc1",
    "answer-label": "true"
  },
  {
    "compound": "Cc1[nH]ccc(=O)c1OCc1c(Cl)cccc1Cl",
    "answer-label": "false"
  },
  {
    "compound": "O=C(Nc1ccccc1)Nc1ccc(-n2ccc(C(F)(F)F)n2)cc1",
    "answer-label": "true"
  },
  {
    "compound": "CCSc1sccc1C1C(C#N)=C(N)N(c2cccnc2)C2=C1C(=O)CCC2 (configuration not stated)",
    "answer-label": "false"
  }
]

Hello, the source for this data is PubChem BioAssay AID434970, in case you need it.
